# Measurement Notes: qHTS assay to identify small molecule agonists of the estrogen related receptor (ERR) signaling pathway (AID 1224820)
# Run Conditions: ERR reporter cell line, luciferase agonist mode; series mostly up to 46.1 µM
Results filed as inconclusive are left out. The source made the active and inactive calls. Calls come from the whole dose curve; as a rule, active = well fitted activation curve with a large enough effect in the repeat runs; inconclusive = weak or mixed curves; inactive = no such curve, though single readings can be large or run the other way.
Return exactly one item of active, inactive

Solved cases below.
CC(N)(Cc1ccc(O)cc1)C(=O)O (stereo not drawn) | inactive
C1CCc2nnnn2CC1 | inactive
CSc1ccccc1N1CCN(CCCCCC(=O)NC2CCCc3ccccc32)CC1 (stereo not drawn) | inactive
C=C1C[C@@]23CC[C@H]4[C@@](C)(CCC[C@@]4(C)C(=O)O)[C@@H]2CC[C@]1(O)C3 | inactive
CCCCCC[C@@H]([C@@H](C)O)n1cnc2c(N)ncnc21 | inactive

Each compound tested received a call. Report the one for CSc1nc(N)c2ncn([C@@H]3O[C@H](COP(=O)(O)OP(=O)(O)OP(=O)(O)O)C(O)[C@H]3O)c2n1 (stereo partly drawn) .
inactive

Each compound tested received a call. Report the one for "CC(N)=NCCCC[C@@H](N)C(=O)O" .
inactive

Each compound tested received a call. Report the one for "Cc1cccc(C#Cc2ccccc2)n1" .
active

Each compound tested received a call. Report the one for "CCOC(=O)C1=C(O)C(=O)N(Cc2ccccc2)C1" .
inactive

Each compound tested received a call. Report the one for Nc1ncnc2c1nc(Sc1ccc(Cl)cc1)n2[C@H]1OC2COP(=O)(O)O[C@@H]2C1O (stereo partly drawn) .
inactive

Each compound tested received a call. Report the one for "Nc1nc2[nH]c(=O)cnc2c(=O)[nH]1" .
inactive

Each compound tested received a call. Report the one for "CCCCCCCC/C=C\CCCCCCCC(=O)NCCc1ccc(O)c(O)c1" .
inactive

Each compound tested received a call. Report the one for CCOC(=O)C(C)Oc1cccc2c(=O)n(CC(=O)Nc3ccc4c(c3)OCCO4)ccc12 (stereo not drawn) .
inactive

Each compound tested received a call. Report the one for "CCOC(=O)[C@H](CCc1ccccc1)N[C@@H](C)C(=O)N1[C@H](C(=O)O)C[C@H]2CCCC[C@@H]21" .
inactive

Each compound tested received a call. Report the one for Nc1nc(Nc2ccccc2)nc2c1ncn2[C@@H]1O[C@H](CO)C(O)[C@H]1O (stereo partly drawn) .
inactive

Each compound tested received a call. Report the one for "C=CCc1cccc(/C=N/NC(=O)CN2CCN(Cc3ccccc3)CC2)c1O" .
inactive

Each compound tested received a call. Report the one for "CC(C)(NS(=O)(=O)c1ccc(Oc2ccc(F)cc2)cc1)C(=O)NO" .
inactive

Each compound tested received a call. Report the one for "O=C(c1cc(O)c(O)c([N+](=O)[O-])c1)c1ccccc1F" .
inactive

Each compound tested received a call. Report the one for "C=CCn1c(=O)c2c(nc(-c3ccc(S(=O)(=O)O)cc3)n2C)n(C)c1=O" .
inactive

----------
# Measurement Notes: qHTS RealTime-Glo MT Cell Viability Assay in HepG2 cells - 24 hour (AID 1224867); note: nearly all actives have a fitted effect of over 50% in size
# Run Conditions: RealTime-Glo luminescence; series mostly up to 76.8 µM
Records with an inconclusive call do not appear. Calls of active or inactive are those of the source. The call rests on the fitted dose curve; in most records, active means well fitted cell-killing curve with a large enough effect in the repeat runs; inconclusive means weak or mixed curves; inactive means flat fitted curve, though single readings scatter.
Attribute Measured: outcome

Guide cases for outcome, answers given:
Nc1ccc(Cl)c([N+](=O)[O-])c1 | inactive
CC(c1cc(C(C)(C)C)cc(C(C)(C)C)c1O)c1cc(C(C)(C)C)cc(C(C)(C)C)c1O | inactive
CC(=O)CC(N)=O | inactive
O=C(c1ccccc1)c1ccc(Cl)cc1 | inactive
CCN(CC)c1ccc2c(c1)Oc1cc(N(CC)CC)ccc1C21OC(=O)c2ccccc21 | inactive

Record request: outcome value, item "Clc1cccc(Cl)n1"
inactive

Record request: outcome value, item "Cn1c(=O)[nH]c2ncn(C)c2c1=O"
inactive

----------
# Measurement Notes: A CellTox Green Cytotoxicity Assay to monitor cytotoxicity in HEK293 cells - 16 hour (AID 1224888); note: nearly all actives have a fitted effect of over 35% in size
# Run Conditions: CellTox Green fluorescence; series mostly up to 76.8 µM
Results filed as inconclusive are left out. Activity calls are given as the source filed them. Calls follow the shape of the dose curve; as a rule, active = well fitted activation curve with a large enough effect in the repeat runs; inconclusive = weak or mixed curves; inactive = flat fitted curve, though single readings scatter.
Return exactly one item of active, inactive

Solved cases below.
Cc1cc(Br)ccc1NC(=O)CCl | inactive
Cc1c[nH]c(=O)[nH]c1=O | inactive
CSc1nnc(C(C)(C)C)c(=O)[nH]1 | inactive
CCN(CC)c1ccc2c(c1)Oc1cc(N(CC)CC)ccc1C21OC(=O)c2ccccc21 | active
CC(=O)Nc1ccc(N=Nc2cc(C)ccc2O)cc1 | inactive

Each compound tested received a call. Report the one for "O=C1c2ccccc2C(=O)c2c(Cl)cccc21" .
inactive

Each compound tested received a call. Report the one for "Nc1ccc(Cl)c([N+](=O)[O-])c1" .
inactive

Each compound tested received a call. Report the one for "c1ccc(C[P+](c2ccccc2)(c2ccccc2)c2ccccc2)cc1" .
inactive

Each compound tested received a call. Report the one for "CCCCCCCCc1ccc(Nc2ccc(CCCCCCCC)cc2)cc1" .
inactive

Each compound tested received a call. Report the one for "COc1ccc(OC)c(N=Nc2c(O)ccc3ccccc23)c1" .
inactive

----------
# Measurement Notes: Human pregnane X receptor (PXR) small molecule agonists, qHTS cell viability counter screen (AID 1346977); note: nearly all actives have a fitted effect of over 50% in size
# Run Conditions: PXR-Luc HepG2 viability, CellTiter-Fluor, 24 h; series mostly up to 92.4 µM
Inconclusive results are not listed. Active and inactive are the calls of the source. Calls come from the whole dose curve; as a rule, active = well fitted cell-killing curve with a large enough effect in the repeat runs; inconclusive = weak or mixed curves, or effect the other way; inactive = flat fitted curve, though single readings scatter.
Return exactly one item of active, inactive

Solved cases below.
CC(C)c1ccc2sc3ccccc3c(=O)c2c1 | inactive
S=C1NC=NC2N=CNC12 (configuration not stated) | inactive
O=C(Nc1ccc([N+](=O)[O-])cc1)Nc1ccc([N+](=O)[O-])cc1 (tested in a mixture with another compound) | inactive
CCOc1nc(F)cc2nc(S(=O)(=O)Nc3c(Cl)cccc3C(=O)OC)nn12 | inactive

Each compound tested received a call. Report the one for "CC(C)C(=O)C(C)C" .
inactive

Each compound tested received a call. Report the one for "C=C(C)CCO" .
inactive

Each compound tested received a call. Report the one for "Cc1cc(Br)ccc1NC(=O)CCl" .
active

Each compound tested received a call. Report the one for "O=C(c1ccccc1)c1ccc(Cl)cc1" .
inactive

Each compound tested received a call. Report the one for "CCn1c2ccccc2c2ccccc21" .
inactive

Each compound tested received a call. Report the one for "N#CCCOCCC#N" .
inactive

Each compound tested received a call. Report the one for NC(=O)C1CO1 (configuration not stated) .
inactive

Each compound tested received a call. Report the one for "Cn1c(=O)[nH]c2ncn(C)c2c1=O" .
inactive

Each compound tested received a call. Report the one for "COc1cc(/C=C/C(=O)CC(=O)/C=C/c2ccc(O)c(OC)c2)ccc1O" .
active

Each compound tested received a call. Report the one for "CCN(CC)c1ccc(C=O)cc1" .
inactive

Each compound tested received a call. Report the one for "NCc1ccco1" .
inactive

----------
# Measurement Notes: Caspase-3/7 induction in CHO-K1 cells by small molecules, qHTS assay (AID 1346980); note: nearly all actives have a fitted effect of over 15% in size
# Run Conditions: CHO-K1 caspase-3/7 induction, Caspase-Glo luminescence, 17 h; series mostly up to 92.4 µM
Active and inactive are the calls of the source. Calls come from the whole dose curve; as a rule, active = well fitted activation curve with a large enough effect in the repeat runs; inconclusive = weak or mixed curves; inactive = flat fitted curve, though single readings scatter.
Return exactly one item of active, inactive

Solved cases below.
CCc1cccc(C)c1N(C(=O)CS(=O)(=O)O)C(C)COC (centres undefined) | inactive
CCOC(=O)C1=NN(c2ccc(Cl)cc2Cl)C(C)(C(=O)OCC)C1 (centres undefined) | inactive
CN1CCN(C)CC1 | inactive

Kindly review the next molecule as well.
Each molecule tested received a call. Report the one for "CCC(=O)OC/C=C(\C)CCC=C(C)C" .
inactive

----------
# Measurement Notes: A CellTox Green Cytotoxicity Assay to monitor cytotoxicity in HepG2 cells - 16 hour (AID 1224876); note: nearly all actives have a fitted effect of over 45% in size
# Run Conditions: CellTox Green fluorescence; series mostly up to 76.8 µM
Results filed as inconclusive are left out. Activity calls are given as the source filed them. The call rests on the fitted dose curve; in most records, active means well fitted activation curve with a large enough effect in the repeat runs; inconclusive means weak or mixed curves; inactive means flat fitted curve, though single readings scatter.
Return exactly one item of active, inactive

CCc1cccc(C)c1N(C(=O)CS(=O)(=O)O)C(C)COC (stereo unspecified) | inactive
C=CCc1cc(S(=O)(=O)c2ccc(O)c(CC=C)c2)ccc1O | inactive
CN(C[C@@H](CC[N+]12CCC(C3CCCCC3)(CC1)CC2)c1ccc(Cl)c(Cl)c1)C(=O)c1cc(C(F)(F)F)cc(C(F)(F)F)c1 | active
Nc1ccc(Cl)c([N+](=O)[O-])c1 | inactive
C=Cc1ccncc1 | inactive
CC/C(=C(/c1ccc(O)cc1)c1ccc(OCCN(C)C)cc1)c1ccccc1 | active

Each compound tested received a call. Report the one for "CCCCCN=C(N)N/N=C/c1c[nH]c2ccc(OC)cc12" .
active

Each compound tested received a call. Report the one for "CC(C)=CCC[C@H](C)CC=O" .
inactive

Each compound tested received a call. Report the one for "CCN(CC)c1ccc2c(c1)Oc1cc(N(CC)CC)ccc1C21OC(=O)c2ccccc21" .
active

----------
# Assay Target: Cytochrome P450 1A2 (Homo sapiens) (UniProt P05177)
# Sequence (P05177 whole entry, looked up): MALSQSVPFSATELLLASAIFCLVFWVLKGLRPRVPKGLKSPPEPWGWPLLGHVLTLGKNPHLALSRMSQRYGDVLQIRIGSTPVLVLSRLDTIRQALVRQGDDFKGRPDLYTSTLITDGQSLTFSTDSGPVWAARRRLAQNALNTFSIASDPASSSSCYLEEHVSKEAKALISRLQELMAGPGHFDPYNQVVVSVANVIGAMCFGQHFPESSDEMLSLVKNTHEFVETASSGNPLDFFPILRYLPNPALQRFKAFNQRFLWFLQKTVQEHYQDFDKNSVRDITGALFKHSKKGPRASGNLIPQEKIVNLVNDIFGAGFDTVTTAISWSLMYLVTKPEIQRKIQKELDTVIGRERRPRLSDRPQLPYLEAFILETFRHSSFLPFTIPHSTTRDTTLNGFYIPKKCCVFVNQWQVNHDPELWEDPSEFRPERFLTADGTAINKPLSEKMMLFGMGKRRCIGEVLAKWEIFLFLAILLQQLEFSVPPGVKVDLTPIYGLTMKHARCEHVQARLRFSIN
# Measurement Notes: Cytochrome P450 Family 1 Subfamily A Member 2 (CYP1A2) small molecule antagonists: luciferase reporter qHTS assay (AID 1671199); note: nearly all actives have a fitted effect of over 50% in size
# Run Conditions: P450-Glo CYP1A2 enzyme, luciferin luminescence, 1 h; series mostly up to 115 µM
Results filed as inconclusive are left out. The source made the active and inactive calls. The call rests on the fitted dose curve; in most records, active means well fitted inhibition curve with a large enough effect in the repeat runs; inconclusive means weak or mixed curves; inactive means no such curve, though single readings can be large or run the other way.
Return exactly one item of 1 = active, -1 = inactive

Solved cases below.
CSc1nnc(C(C)(C)C)c(=O)[nH]1 | -1
O=[N+]([O-])c1ccc(O)c2ncccc12 | -1
Cc1c(Cl)c(=O)oc2cc(O)ccc12 | 1

Each compound tested received a call. Report the one for C=C(C)C1CCC(C)CC1O (stereo unspecified) .
-1

Each compound tested received a call. Report the one for "CC(C)(C)c1cc(CCC(=O)OCCSCCOC(=O)CCc2cc(C(C)(C)C)c(O)c(C(C)(C)C)c2)cc(C(C)(C)C)c1O" .
-1

Each compound tested received a call. Report the one for "CN1CCN(C)CC1" .
-1

Provenance of the data: PubChem BioAssay (Tox21)
